target: Kdn(a2-3)Gal(b1-4)[Fuc(a1-3)]GlcNAc; test: glycan array binding signal (z-score within array); higher = stronger binding; settings: glycan notation: IUPAC condensed, linker removed
The full list was thinned out, with the strongest signals kept by preference.
Exercise: for every item that follows, state its recorded glycan array binding signal (z-score).
Keep the answer to the number alone.

Task item: Query (binder): Pbx2CASH domain (Cryptococcus neoformans) (protein) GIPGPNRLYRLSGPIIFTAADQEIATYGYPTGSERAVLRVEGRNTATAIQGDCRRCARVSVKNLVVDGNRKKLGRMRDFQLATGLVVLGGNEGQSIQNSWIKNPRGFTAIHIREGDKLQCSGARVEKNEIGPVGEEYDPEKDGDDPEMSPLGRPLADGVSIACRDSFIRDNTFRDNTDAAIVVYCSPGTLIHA ; field requested: glycan array binding signal (z-score)
Reply: 0.079

Task item: State the recorded glycan array binding signal (z-score) for this entry: Mg1lysM (Mycosphaerella graminicola) (protein) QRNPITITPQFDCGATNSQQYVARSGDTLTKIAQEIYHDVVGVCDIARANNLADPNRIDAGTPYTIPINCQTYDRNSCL
Reply: -0.081

Task item: Look at this binder and give its reported glycan array binding signal (z-score). 3FTT (Staphylococcus aureus), Q5HCZ5 (protein) MTEKEKMLAEKWYDANFDQYLINERARAKDICFELNHTRPSATNKRKELIDQLFQTTTDNVSISIPFDTDYGWNVKLGKNVYVNTNCYFMDGGQITIGDNVFIGPNCGFYTATHPLNFHHRNEGFEKAGPIHIGSNTWFGGHVAVLPGVTIGEGSVIGAGSVVTKDIPPHSLAVGNPCKVVRKIDNDLPSETLNDETIK
Reply: 0.16
